Test: Measurement of concentrations of human 17βHSD type 5 inhibitor compounds in mouse tissues (plasma, prostate) after oral administration
Type: in vivo
Details: prostate, male ICR mice, oral single dose 300 mg/kg, 2 hours after administration, read-out: Conc (prostate)
Entries and their concentration at 2 h values follow.
State the value with its unit after it.

[
  {
    "Molecule": "O=C(O)c1cn(S(=O)(=O)c2ccc(Br)cc2)c2ccccc12 [Example 144]",
    "concentration at 2 h": "24.8 µM"
  }
]

Lab note: O=C(O)c1cn(S(=O)(=O)c2ccccc2)c2ccccc12 [Example 1] gave concentration at 2 h of 47.4 µM

Lab note: O=C(O)c1cn(S(=O)(=O)c2ccccc2)c2ccc(Cl)cc12 [Example 190] gave concentration at 2 h of 37.4 µM

Lab note: O=C(O)c1cn(S(=O)(=O)c2ccc(Br)cc2)c2c(Cl)cccc12 [Example 192] gave concentration at 2 h of 24.9 µM
